meta.source: paper PMC10517971

# systemName: hERG (Homo sapiens, UniProt Q12809)
# protocolDetails: hERG ion channel profiling, Qube384 automated patch clamp (standard and extended protocol)
# Type: cell-based
# runParameters: extended protocol, 3rd period, read-out: Ion Channel Extended Protocol IC50 (nM), Period 3rd
readoutLabel: IC50

>>> print(df.to_string())
                                  smilesstr  experimentalvalue
0  CCOc1cc(C)nc(N(CCOC)S(=O)(=O)c2ccc(NCc3c(F)cncc3F)nc2OC)n1           18700 nM

---

# systemName: Human PDE2A1 (Homo sapiens)
# Sequence (O00408 1-920 isoform O00408-2): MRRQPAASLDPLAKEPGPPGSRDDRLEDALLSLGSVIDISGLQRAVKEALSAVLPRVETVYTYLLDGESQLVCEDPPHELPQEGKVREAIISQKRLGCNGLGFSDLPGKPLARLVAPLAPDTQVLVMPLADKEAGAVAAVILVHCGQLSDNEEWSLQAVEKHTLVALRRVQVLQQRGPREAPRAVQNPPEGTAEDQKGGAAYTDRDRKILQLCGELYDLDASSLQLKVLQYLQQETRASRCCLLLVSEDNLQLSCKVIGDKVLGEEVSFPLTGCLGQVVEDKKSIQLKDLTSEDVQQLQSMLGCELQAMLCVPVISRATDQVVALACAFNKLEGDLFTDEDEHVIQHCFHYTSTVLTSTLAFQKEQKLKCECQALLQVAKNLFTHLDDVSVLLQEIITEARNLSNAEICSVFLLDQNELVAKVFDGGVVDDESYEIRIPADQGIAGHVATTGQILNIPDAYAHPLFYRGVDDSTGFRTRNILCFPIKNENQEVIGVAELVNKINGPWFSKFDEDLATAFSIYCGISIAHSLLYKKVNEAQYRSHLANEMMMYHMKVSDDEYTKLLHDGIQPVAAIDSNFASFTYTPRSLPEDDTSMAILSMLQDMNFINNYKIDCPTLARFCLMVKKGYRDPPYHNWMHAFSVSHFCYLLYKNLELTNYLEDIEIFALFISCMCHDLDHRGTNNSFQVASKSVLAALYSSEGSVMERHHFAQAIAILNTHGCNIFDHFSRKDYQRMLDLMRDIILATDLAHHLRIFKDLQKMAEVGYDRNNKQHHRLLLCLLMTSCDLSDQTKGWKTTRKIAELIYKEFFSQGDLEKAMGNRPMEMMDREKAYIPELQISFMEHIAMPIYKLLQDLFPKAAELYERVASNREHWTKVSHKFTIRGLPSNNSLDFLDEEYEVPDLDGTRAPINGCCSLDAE
readoutLabel: IC50

>>> df
                                   molecule  experimentalvalue
0  CCOc1cc(C)nc(N(CCOC)S(=O)(=O)c2ccc(NCc3c(F)cncc3F)nc2OC)n1 [Compound 1]           > 200 µM

---

# systemName: Human PDE5A1 (Homo sapiens)
pIC50: −log10 of the molar value.
readoutLabel: pIC50

In [3]: df
Out[3]:
                                  smilesstr                   systemname  experimentalvalue
0  CCOc1cc(C)nc(N(CCOC)S(=O)(=O)c2ccc(NCc3c(F)cncc3F)nc2OC)n1  Human PDE5A1 (Homo sapiens)               3.81

---

# systemName: Cav1.2 (Homo sapiens)
# Sequence (Q13936 whole entry): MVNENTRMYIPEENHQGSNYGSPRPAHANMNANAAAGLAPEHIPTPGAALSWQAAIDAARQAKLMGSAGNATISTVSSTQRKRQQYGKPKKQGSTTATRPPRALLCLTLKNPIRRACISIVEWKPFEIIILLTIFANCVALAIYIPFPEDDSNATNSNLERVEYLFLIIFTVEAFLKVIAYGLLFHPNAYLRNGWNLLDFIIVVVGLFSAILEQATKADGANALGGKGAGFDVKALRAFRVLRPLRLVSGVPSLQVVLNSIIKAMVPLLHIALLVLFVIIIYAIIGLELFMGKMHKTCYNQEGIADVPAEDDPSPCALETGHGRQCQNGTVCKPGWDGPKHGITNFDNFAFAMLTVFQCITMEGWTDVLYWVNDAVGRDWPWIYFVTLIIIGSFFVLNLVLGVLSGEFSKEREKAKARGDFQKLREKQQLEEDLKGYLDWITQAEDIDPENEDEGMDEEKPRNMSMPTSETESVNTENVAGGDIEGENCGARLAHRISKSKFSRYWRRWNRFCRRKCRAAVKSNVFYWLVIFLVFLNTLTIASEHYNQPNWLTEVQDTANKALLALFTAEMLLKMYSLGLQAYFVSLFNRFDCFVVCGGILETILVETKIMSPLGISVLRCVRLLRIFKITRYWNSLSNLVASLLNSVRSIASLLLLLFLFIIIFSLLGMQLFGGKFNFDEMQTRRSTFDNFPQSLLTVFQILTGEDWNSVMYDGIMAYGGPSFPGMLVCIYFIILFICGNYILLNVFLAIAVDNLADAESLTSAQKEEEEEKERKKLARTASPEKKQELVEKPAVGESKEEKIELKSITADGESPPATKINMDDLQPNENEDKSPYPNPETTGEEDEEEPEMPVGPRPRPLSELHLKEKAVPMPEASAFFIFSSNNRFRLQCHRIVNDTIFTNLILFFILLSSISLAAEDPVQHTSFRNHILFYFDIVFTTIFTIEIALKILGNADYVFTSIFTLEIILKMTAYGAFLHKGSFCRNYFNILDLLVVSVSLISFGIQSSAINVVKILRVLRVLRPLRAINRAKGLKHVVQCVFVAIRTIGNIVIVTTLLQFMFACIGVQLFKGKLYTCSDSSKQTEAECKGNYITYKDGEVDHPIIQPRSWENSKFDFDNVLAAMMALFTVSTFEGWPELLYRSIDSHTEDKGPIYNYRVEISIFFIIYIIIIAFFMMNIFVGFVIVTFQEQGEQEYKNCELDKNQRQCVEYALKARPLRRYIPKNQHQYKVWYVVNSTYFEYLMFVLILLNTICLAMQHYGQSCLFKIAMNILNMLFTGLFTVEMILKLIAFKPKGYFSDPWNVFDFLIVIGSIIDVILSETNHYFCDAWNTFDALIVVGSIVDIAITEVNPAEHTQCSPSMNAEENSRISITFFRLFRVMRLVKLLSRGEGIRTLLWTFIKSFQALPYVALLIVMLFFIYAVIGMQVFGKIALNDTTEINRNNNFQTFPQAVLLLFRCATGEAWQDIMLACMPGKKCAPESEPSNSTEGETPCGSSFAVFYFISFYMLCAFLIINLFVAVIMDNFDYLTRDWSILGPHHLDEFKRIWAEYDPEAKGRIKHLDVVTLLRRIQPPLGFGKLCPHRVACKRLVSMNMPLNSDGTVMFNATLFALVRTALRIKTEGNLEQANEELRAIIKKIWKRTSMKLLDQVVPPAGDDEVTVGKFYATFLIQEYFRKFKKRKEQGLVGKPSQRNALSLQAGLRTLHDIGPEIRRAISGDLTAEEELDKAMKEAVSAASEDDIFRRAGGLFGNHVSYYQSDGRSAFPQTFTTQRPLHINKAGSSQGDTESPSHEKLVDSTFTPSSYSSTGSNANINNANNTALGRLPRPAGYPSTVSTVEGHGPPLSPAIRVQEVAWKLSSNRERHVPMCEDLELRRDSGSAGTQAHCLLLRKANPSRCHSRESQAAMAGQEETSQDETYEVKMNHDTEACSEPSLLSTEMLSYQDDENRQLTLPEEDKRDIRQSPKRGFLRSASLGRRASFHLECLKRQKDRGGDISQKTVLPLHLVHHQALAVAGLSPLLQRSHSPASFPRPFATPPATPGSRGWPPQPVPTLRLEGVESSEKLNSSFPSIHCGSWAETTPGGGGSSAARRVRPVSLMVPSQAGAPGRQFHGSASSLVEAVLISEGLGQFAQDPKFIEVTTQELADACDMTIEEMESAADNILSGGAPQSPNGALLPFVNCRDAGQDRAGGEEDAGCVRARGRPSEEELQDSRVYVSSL
# Sequence (Q08289 whole entry partner): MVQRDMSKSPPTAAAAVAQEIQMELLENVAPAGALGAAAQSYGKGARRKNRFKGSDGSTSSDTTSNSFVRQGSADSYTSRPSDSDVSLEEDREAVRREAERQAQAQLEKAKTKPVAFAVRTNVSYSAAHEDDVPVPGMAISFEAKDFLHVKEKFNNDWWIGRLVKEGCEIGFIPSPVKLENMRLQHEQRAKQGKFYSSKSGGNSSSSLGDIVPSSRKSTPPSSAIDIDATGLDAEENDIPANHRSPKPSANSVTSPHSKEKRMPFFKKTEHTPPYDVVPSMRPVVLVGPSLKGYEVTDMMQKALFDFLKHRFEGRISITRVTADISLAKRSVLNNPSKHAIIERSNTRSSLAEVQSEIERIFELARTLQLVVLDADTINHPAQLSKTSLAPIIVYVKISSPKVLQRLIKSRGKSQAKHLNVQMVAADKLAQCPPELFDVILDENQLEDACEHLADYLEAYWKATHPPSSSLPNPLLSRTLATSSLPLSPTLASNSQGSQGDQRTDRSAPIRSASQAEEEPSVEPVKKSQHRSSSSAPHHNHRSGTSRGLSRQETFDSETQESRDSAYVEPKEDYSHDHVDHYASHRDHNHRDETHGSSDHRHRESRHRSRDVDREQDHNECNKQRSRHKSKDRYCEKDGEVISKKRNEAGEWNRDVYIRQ
# Sequence (P54289 25-956 partner limits assumed): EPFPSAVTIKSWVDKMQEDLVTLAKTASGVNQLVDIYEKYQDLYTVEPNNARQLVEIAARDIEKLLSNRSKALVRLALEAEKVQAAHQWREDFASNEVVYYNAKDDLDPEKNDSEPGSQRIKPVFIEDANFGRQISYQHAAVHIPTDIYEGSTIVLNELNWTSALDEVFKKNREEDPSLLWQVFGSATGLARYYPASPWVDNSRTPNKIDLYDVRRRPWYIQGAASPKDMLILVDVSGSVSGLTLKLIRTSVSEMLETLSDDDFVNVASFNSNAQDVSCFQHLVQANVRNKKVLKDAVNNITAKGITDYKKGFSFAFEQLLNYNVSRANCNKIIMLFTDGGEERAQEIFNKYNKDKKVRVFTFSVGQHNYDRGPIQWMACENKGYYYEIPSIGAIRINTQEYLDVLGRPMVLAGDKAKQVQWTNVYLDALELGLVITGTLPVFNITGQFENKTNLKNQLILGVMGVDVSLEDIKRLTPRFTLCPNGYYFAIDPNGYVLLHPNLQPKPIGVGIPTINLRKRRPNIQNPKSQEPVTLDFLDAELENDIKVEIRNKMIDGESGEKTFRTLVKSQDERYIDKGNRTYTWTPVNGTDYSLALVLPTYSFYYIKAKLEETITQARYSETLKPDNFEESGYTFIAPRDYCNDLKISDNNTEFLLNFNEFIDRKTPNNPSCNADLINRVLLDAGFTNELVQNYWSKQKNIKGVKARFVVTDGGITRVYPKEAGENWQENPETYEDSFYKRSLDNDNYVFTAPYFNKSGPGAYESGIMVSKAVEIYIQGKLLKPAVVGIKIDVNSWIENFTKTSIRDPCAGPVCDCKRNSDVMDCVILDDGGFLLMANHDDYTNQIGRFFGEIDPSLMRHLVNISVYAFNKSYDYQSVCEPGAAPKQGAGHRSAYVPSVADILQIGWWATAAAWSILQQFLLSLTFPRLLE
# Sequence (P54289 957-1103 partner limits assumed): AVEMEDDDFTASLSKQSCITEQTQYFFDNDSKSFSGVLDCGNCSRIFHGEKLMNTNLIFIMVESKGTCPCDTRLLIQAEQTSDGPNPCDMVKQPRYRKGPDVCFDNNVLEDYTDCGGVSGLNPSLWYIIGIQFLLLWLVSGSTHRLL
# protocolDetails: cell-based
# runParameters: IC50 (nM), Calcium Channel Cav1 (so in the source), standard protocol
readoutLabel: IC50 (nM)

In [3]: df
Out[3]:
                                   compound  unittag  experimentalvalue
0  CCOc1cc(C)nc(N(CCOC)S(=O)(=O)c2ccc(NCc3c(F)cncc3F)nc2OC)n1 [Compound 1]       nM              44800

---

# systemName: human GABAA receptor (α1β2γ2) (Homo sapiens, UniProt P14867+P18507+P47870)
# Construct: expressed in transfected cells
# protocolDetails: GABA Patch Clamp Assay (agonist, antagonist, PAM modes)
# Format: cell-based
pEC50: −log10 of the molar value.
readoutLabel: pEC50

>>> df
                                  smilesstr  experimentalvalue
0  CCOc1cc(C)nc(N(CCOC)S(=O)(=O)c2ccc(NCc3c(F)cncc3F)nc2OC)n1             < 4.00

---

# systemName: human GPR61 (Homo sapiens, UniProt Q9BZJ8)
# Construct: expressed in transfected cells; host or cells: CHO-K1, transient (Fugene6)
# protocolDetails: Functional cAMP assay (HTRF), transiently transfected CHO-K1 cells, wild-type GPR61 (untagged and HiBit-tagged)
# Type: cell-based
# runParameters: Fig. 2d, untagged WT; read-out: IC50, cAMP assay, Untagged GPR61
pIC50: −log10 of the molar value.
readoutLabel: pIC50

                                  smilesstr  experimentalvalue
0  CCOc1cc(C)nc(N(CCOC)S(=O)(=O)c2ccc(NCc3c(F)cncc3F)nc2OC)n1               7.96

---

# systemName: human GPR101 (Homo sapiens, UniProt Q96P66)
# Construct: expressed in transfected cells
# protocolDetails: Functional cAMP assay (HTRF), stable CHO TREx human GPR101 cells
# Type: cell-based
# runParameters: Supplementary Table 2
readoutLabel: IC50

>>> print(df.to_string())
                                   compound  readoutlabel  experimentalvalue
0  CCOc1cc(C)nc(N(CCOC)S(=O)(=O)c2ccc(NCc3c(F)cncc3F)nc2OC)n1 [Compound 1]          IC50          > 29.7 µM
